Tested on: TTR
Protocol Details: TTR editing in HUH7 cells transfected with Spy Cas9 mRNA and dgRNAs (Table 5)
Format: cell-based, human
Test Settings: HUH7 cells co-transfected with Spy Cas9 mRNA (SEQ ID NO:2) and dgRNAs
Avg % Insert strictly less than 2% = MET. Otherwise NOT MET.

Item Sequence | Classification
GCGGCAAUGGUGUAGCGGCG (tested as dual guide RNA, chemistry not given here) [CR003377] | NOT MET
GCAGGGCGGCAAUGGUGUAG (tested as dual guide RNA, chemistry not given here) [CR003380] | NOT MET
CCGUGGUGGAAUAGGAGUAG (tested as dual guide RNA, chemistry not given here) [CR003386] | MET
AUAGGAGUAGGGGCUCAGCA (tested as dual guide RNA, chemistry not given here) [CR003383] | NOT MET
CACAUGCACGGCCACAUUGA (tested as dual guide RNA, chemistry not given here) [CR003350] | NOT MET
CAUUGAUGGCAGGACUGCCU (tested as dual guide RNA, chemistry not given here) [CR003347] | MET
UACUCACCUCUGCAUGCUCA (tested as dual guide RNA, chemistry not given here) [CR003372] | NOT MET

---

Reported Avg % Deletion values follow for various sequences
Test system: TTR
Protocol Details: TTR editing in primary human hepatocytes transfected with Spy Cas9 mRNA and dgRNAs (Table 9)
Type: cell-based
Test Settings: dgRNA co-transfected with Spy Cas9 mRNA (SEQ ID NO:2)
Readout Type: Avg % Deletion (%)

Item Sequence | Experimental Result
AAGUGCCUUCCAGUAAGAUU (tested as dual guide RNA, chemistry not given here) [CR003368] | 0.60
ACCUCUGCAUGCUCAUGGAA (tested as dual guide RNA, chemistry not given here) [CR003371] | 0.73
AAUAGGAGUAGGGGCUCAGC (tested as dual guide RNA, chemistry not given here) [CR003384] | 0.20
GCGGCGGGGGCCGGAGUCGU (tested as dual guide RNA, chemistry not given here) [CR003374] | 0.03
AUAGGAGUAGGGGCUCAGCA (tested as dual guide RNA, chemistry not given here) [CR003383] | 13.70
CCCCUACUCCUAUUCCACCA (tested as dual guide RNA, chemistry not given here) [CR003385] | 3.60
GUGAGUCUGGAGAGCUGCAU (tested as dual guide RNA, chemistry not given here) [CR003360] | 0.90
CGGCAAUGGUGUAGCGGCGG (tested as dual guide RNA, chemistry not given here) [CR003376] | 0.13
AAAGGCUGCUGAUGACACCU (tested as dual guide RNA, chemistry not given here) [CR003353] | 4.43
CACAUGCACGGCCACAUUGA (tested as dual guide RNA, chemistry not given here) [CR003350] | 10.33
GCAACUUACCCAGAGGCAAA (tested as dual guide RNA, chemistry not given here) [CR003356] | 2.67
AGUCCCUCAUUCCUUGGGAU (tested as dual guide RNA, chemistry not given here) [CR003392] | 0.07
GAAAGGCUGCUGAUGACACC (tested as dual guide RNA, chemistry not given here) [CR003352] | 5.07
GGGCGGCAAUGGUGUAGCGG (tested as dual guide RNA, chemistry not given here) [CR003379] | 1.27
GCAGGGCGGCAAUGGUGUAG (tested as dual guide RNA, chemistry not given here) [CR003380] | 0.47
AAAUCUUACUGGAAGGCACU (tested as dual guide RNA, chemistry not given here) [CR005306] | 2.87
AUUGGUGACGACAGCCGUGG (tested as dual guide RNA, chemistry not given here) [CR003389] | 2.83
AGCCGUGGUGGAAUAGGAGU (tested as dual guide RNA, chemistry not given here) [CR005299] | 0.60
ACGUGUCUUCUCUACACCCA (tested as dual guide RNA, chemistry not given here) [CR005302] | 1.13
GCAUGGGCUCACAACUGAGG (tested as dual guide RNA, chemistry not given here) [CR003362] | 0.47
ACUGAGGAGGAAUUUGUAGA (tested as dual guide RNA, chemistry not given here) [CR003363] | 4.93
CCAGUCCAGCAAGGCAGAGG (tested as dual guide RNA, chemistry not given here) [CR003337] | 1.23
GGCCGUGCAUGUGUUCAGAA (tested as dual guide RNA, chemistry not given here) [CR005304] | 44.47
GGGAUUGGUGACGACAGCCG (tested as dual guide RNA, chemistry not given here) [CR003390] | 1.60
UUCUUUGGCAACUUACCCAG (tested as dual guide RNA, chemistry not given here) [CR003357] | 0.63
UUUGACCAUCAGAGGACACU (tested as dual guide RNA, chemistry not given here) [CR003344] | 9.20
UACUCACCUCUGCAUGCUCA (tested as dual guide RNA, chemistry not given here) [CR003372] | 0.63
GUAUUCACAGCCAACGACUC (tested as dual guide RNA, chemistry not given here) [CR003373] | 0.37

---

Test system: TTR
Protocol Details: TTR editing in primary cyno hepatocytes electroporated with Spy Cas9 protein and dgRNAs (Tables 10, 11)
Format: cell-based, cynomolgus monkey
Test Settings: Table 10; primary cyno hepatocytes electroporated with Spy Cas9 protein (RNP) and dgRNAs
Description: Primary liver hepatocytes. Primary human liver hepatocytes (PHH) and primary cynomolgus liver hepatocytes (PCH) (Gibco) were cultured per the manufacturer's protocol (Invitrogen, protocol 11.28.2012). […] Cells were counted and plated on Bio-coat collagen I coated 96-well plates (ThermoFisher, Cat. 877272) at a density of 33,000 cells/well for human or 60,000 cells/well for cyno (or 65,000 cells/well when assaying effects on TTR protein, described further below). […]
Label T when Avg % Edit is at or above 10%; otherwise label F.

Item Sequence | Classification
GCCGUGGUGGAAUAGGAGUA (tested as dual guide RNA, chemistry not given here) [CR003387] | F
UGUCUGUCUUCUCUCAUAGG (tested as dual guide RNA, chemistry not given here) [CR005307] | F
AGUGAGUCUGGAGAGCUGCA (tested as dual guide RNA, chemistry not given here) [CR003359] | T
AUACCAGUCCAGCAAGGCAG (tested as dual guide RNA, chemistry not given here) [CR003338] | T
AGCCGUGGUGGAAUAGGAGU (tested as dual guide RNA, chemistry not given here) [CR005299] | T
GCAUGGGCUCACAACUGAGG (tested as dual guide RNA, chemistry not given here) [CR003362] | F
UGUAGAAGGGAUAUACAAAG (tested as dual guide RNA, chemistry not given here) [CR003365] | T
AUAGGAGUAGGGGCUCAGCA (tested as dual guide RNA, chemistry not given here) [CR003383] | F
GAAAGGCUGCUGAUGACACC (tested as dual guide RNA, chemistry not given here) [CR003352] | F
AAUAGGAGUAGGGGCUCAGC (tested as dual guide RNA, chemistry not given here) [CR003384] | F
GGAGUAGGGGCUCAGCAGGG (tested as dual guide RNA, chemistry not given here) [CR003382] | T
AUGCAGCUCUCCAGACUCAC (tested as dual guide RNA, chemistry not given here) [CR003358] | T
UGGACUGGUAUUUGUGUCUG (tested as dual guide RNA, chemistry not given here) [CR003340] | T
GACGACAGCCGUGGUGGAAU (tested as dual guide RNA, chemistry not given here) [CR003388] | F

---

Tested on: TTR
Protocol Details: TTR editing in primary human hepatocytes electroporated with Spy Cas9 protein loaded with dgRNAs (Table 7)
Format: cell-based
Test Settings: dgRNA electroporated with Spy Cas9 protein (RNP)
Description: Primary liver hepatocytes. Primary human liver hepatocytes (PHH) and primary cynomolgus liver hepatocytes (PCH) (Gibco) were cultured per the manufacturer's protocol (Invitrogen, protocol 11.28.2012). […] Cells were counted and plated on Bio-coat collagen I coated 96-well plates (ThermoFisher, Cat. 877272) at a density of 33,000 cells/well for human or 60,000 cells/well for cyno (or 65,000 cells/well when assaying effects on TTR protein, described further below). […]
Each entry below carries its reported Avg % Deletion.
Readout Type: Avg % Deletion

Item Sequence | Experimental Result
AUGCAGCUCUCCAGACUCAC (tested as dual guide RNA, chemistry not given here) [CR003358] | 0.80%
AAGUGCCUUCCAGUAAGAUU (tested as dual guide RNA, chemistry not given here) [CR003368] | 0.80%
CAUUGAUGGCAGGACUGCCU (tested as dual guide RNA, chemistry not given here) [CR003347] | 0.43%
CAGAGGACACUUGGAUUCAC (tested as dual guide RNA, chemistry not given here) [CR003343] | 1.50%

Reference for the values: patent US11795460B2
